// data source = patent US11891401B2

Assay: Solubility in various media at 25° C. after 24 hours equilibration (UPLC)
Format: physicochemical
Details: FeSSIF pH 5.8; 25° C., 24 hours equilibration
Parameter solubility: see the listing below.

| Compound | Units Of Measure | solubility |
| --- | --- | --- |
| Cc1nc(C)c(C(=O)Nc2ccc(F)c(-c3nc4ncc(-c5ncccc5C)cn4n3)c2)o1 [Form B] | µg/mL | 16 |
| Cc1nc(C)c(C(=O)Nc2ccc(F)c(-c3nc4ncc(-c5ncccc5C)cn4n3)c2)o1 [Free Form] | µg/mL | 6 |
| Cc1nc(C)c(C(=O)Nc2ccc(F)c(-c3nc4ncc(-c5ncccc5C)cn4n3)c2)o1 [Amorphous Compound I Fumaric Acid (1:1)] | µg/mL | 18 |
| Cc1nc(C)c(C(=O)Nc2ccc(F)c(-c3nc4ncc(-c5ncccc5C)cn4n3)c2)o1 [Amorphous Compound I Fumaric Acid (2:1)] | µg/mL | 13 |

----------
Test: Solubility in various media at 25° C. after 24 hours equilibration (UPLC)
Assay type: physicochemical
Conditions: FaSSIF pH 6.5; after 24 hours equilibration

| Molecule | final pH of the sample (in parentheses) |
| --- | --- |
| Cc1nc(C)c(C(=O)Nc2ccc(F)c(-c3nc4ncc(-c5ncccc5C)cn4n3)c2)o1 [Free Form] | 6.31 |
| Cc1nc(C)c(C(=O)Nc2ccc(F)c(-c3nc4ncc(-c5ncccc5C)cn4n3)c2)o1 [Form B] | (5.7) |
| Cc1nc(C)c(C(=O)Nc2ccc(F)c(-c3nc4ncc(-c5ncccc5C)cn4n3)c2)o1 [Amorphous Compound I Fumaric Acid (2:1)] | (6.1) |
| Cc1nc(C)c(C(=O)Nc2ccc(F)c(-c3nc4ncc(-c5ncccc5C)cn4n3)c2)o1 [Form C] | (5.5) |
| Cc1nc(C)c(C(=O)Nc2ccc(F)c(-c3nc4ncc(-c5ncccc5C)cn4n3)c2)o1 [Compound I Fumaric Acid Co-crystal (2:1)] | (5.9) |
| Cc1nc(C)c(C(=O)Nc2ccc(F)c(-c3nc4ncc(-c5ncccc5C)cn4n3)c2)o1 [Amorphous Compound I Fumaric Acid (1:1)] | (5.8) |

----------
Assay: Solubility in various media at 25° C. after 24 hours equilibration (UPLC)
Type: physicochemical
Settings: acetate buffer pH 4.7; after 24 hours equilibration
Measured Parameter: final pH of the sample (in parentheses)

| Compound | Assay Result |
| --- | --- |
| Cc1nc(C)c(C(=O)Nc2ccc(F)c(-c3nc4ncc(-c5ncccc5C)cn4n3)c2)o1 [Form B] | (4.6) |
| Cc1nc(C)c(C(=O)Nc2ccc(F)c(-c3nc4ncc(-c5ncccc5C)cn4n3)c2)o1 [Compound I Fumaric Acid Co-crystal (2:1)] | (4.5) |
| Cc1nc(C)c(C(=O)Nc2ccc(F)c(-c3nc4ncc(-c5ncccc5C)cn4n3)c2)o1 [Free Form] | 4.68 |
| Cc1nc(C)c(C(=O)Nc2ccc(F)c(-c3nc4ncc(-c5ncccc5C)cn4n3)c2)o1 [Form C] | (4.4) |
| Cc1nc(C)c(C(=O)Nc2ccc(F)c(-c3nc4ncc(-c5ncccc5C)cn4n3)c2)o1 [Amorphous Compound I Fumaric Acid (1:1)] | (4.6) |
| Cc1nc(C)c(C(=O)Nc2ccc(F)c(-c3nc4ncc(-c5ncccc5C)cn4n3)c2)o1 [Amorphous Compound I Fumaric Acid (2:1)] | (4.7) |

----------
Assay: Solubility in various media at 25° C. after 24 hours equilibration (UPLC)
Format: physicochemical
Conditions: simulated gastric fluid, thermodynamic from solid; 0.01N HCl pH 2.0; 25° C., 24 hours equilibration
Measured Parameter: solubility at 24 h (µg/mL)

| Molecule | Measured Parameter | Assay Result |
| --- | --- | --- |
| Cc1nc(C)c(C(=O)Nc2ccc(F)c(-c3nc4ncc(-c5ncccc5C)cn4n3)c2)o1 [Free Form] | solubility at 24 h | 17 |

----------
Test: Solubility in various media at 25° C. after 24 hours equilibration (UPLC)
Assay type: physicochemical
Settings: 0.1N HCl pH 1.0; after 24 hours equilibration
Measured Parameter: final pH of the sample (in parentheses)

| Compound | Measured Parameter | Assay Result |
| --- | --- | --- |
| Cc1nc(C)c(C(=O)Nc2ccc(F)c(-c3nc4ncc(-c5ncccc5C)cn4n3)c2)o1 [Form C] | final pH of the sample (in parentheses) | (1.1) |
| Cc1nc(C)c(C(=O)Nc2ccc(F)c(-c3nc4ncc(-c5ncccc5C)cn4n3)c2)o1 [Amorphous Compound I Fumaric Acid (2:1)] | final pH of the sample (in parentheses) | (1.1) |
| Cc1nc(C)c(C(=O)Nc2ccc(F)c(-c3nc4ncc(-c5ncccc5C)cn4n3)c2)o1 [Free Form] | final pH of the sample (in parentheses) | 1.00 |
| Cc1nc(C)c(C(=O)Nc2ccc(F)c(-c3nc4ncc(-c5ncccc5C)cn4n3)c2)o1 [Compound I Fumaric Acid Co-crystal (2:1)] | final pH of the sample (in parentheses) | (0.8) |
| Cc1nc(C)c(C(=O)Nc2ccc(F)c(-c3nc4ncc(-c5ncccc5C)cn4n3)c2)o1 [Amorphous Compound I Fumaric Acid (1:1)] | final pH of the sample (in parentheses) | (1.1) |
| Cc1nc(C)c(C(=O)Nc2ccc(F)c(-c3nc4ncc(-c5ncccc5C)cn4n3)c2)o1 [Form B] | final pH of the sample (in parentheses) | (1.0) |

----------
Assay: Solid-state chemical stability: degradation products by UPLC/HPLC after stress storage
Format: physicochemical
Details: Solid state, 1 week 80° C./75% r.h.
Measured Parameter: DP % (Degradation Product), Bulk (UPLC) (%)

| Molecule | Units Of Measure | Assay Result |
| --- | --- | --- |
| Cc1nc(C)c(C(=O)Nc2ccc(F)c(-c3nc4ncc(-c5ncccc5C)cn4n3)c2)o1 [Amorphous Compound I Fumaric Acid (2:1)] | % | 1.6 |
| Cc1nc(C)c(C(=O)Nc2ccc(F)c(-c3nc4ncc(-c5ncccc5C)cn4n3)c2)o1 [Compound I Fumaric Acid Co-crystal (2:1)] | % | 1.2 |
| Cc1nc(C)c(C(=O)Nc2ccc(F)c(-c3nc4ncc(-c5ncccc5C)cn4n3)c2)o1 [Form C] | % | 1.8 |
| Cc1nc(C)c(C(=O)Nc2ccc(F)c(-c3nc4ncc(-c5ncccc5C)cn4n3)c2)o1 [Free Form] | % | 0.6 |
| Cc1nc(C)c(C(=O)Nc2ccc(F)c(-c3nc4ncc(-c5ncccc5C)cn4n3)c2)o1 [Amorphous Compound I Fumaric Acid (1:1)] | % | 2.7 |
| Cc1nc(C)c(C(=O)Nc2ccc(F)c(-c3nc4ncc(-c5ncccc5C)cn4n3)c2)o1 [Form B] | % | 1.7 |

----------
Assay: Solubility in various media at 25° C. after 24 hours equilibration (UPLC)
Type: physicochemical
Details: water; after 24 hours equilibration

| Compound | final pH of the sample (in parentheses) |
| --- | --- |
| Cc1nc(C)c(C(=O)Nc2ccc(F)c(-c3nc4ncc(-c5ncccc5C)cn4n3)c2)o1 [Form C] | (2.9) |
| Cc1nc(C)c(C(=O)Nc2ccc(F)c(-c3nc4ncc(-c5ncccc5C)cn4n3)c2)o1 [Amorphous Compound I Fumaric Acid (2:1)] | (3.2) |
| Cc1nc(C)c(C(=O)Nc2ccc(F)c(-c3nc4ncc(-c5ncccc5C)cn4n3)c2)o1 [Compound I Fumaric Acid Co-crystal (2:1)] | (3.1) |
| Cc1nc(C)c(C(=O)Nc2ccc(F)c(-c3nc4ncc(-c5ncccc5C)cn4n3)c2)o1 [Form B] | (2.9) |
| Cc1nc(C)c(C(=O)Nc2ccc(F)c(-c3nc4ncc(-c5ncccc5C)cn4n3)c2)o1 [Free Form] | 8.18 |
| Cc1nc(C)c(C(=O)Nc2ccc(F)c(-c3nc4ncc(-c5ncccc5C)cn4n3)c2)o1 [Amorphous Compound I Fumaric Acid (1:1)] | (3.0) |

----------
Test: Solid-state chemical stability: degradation products by UPLC/HPLC after stress storage
Type: physicochemical
Settings: Solid state, 1 week 80° C., closed container
Protocol: Compound I, Compound I fumaric acid co-crystals and amorphous Compound I fumaric acid samples (10 mg) were placed in an open vial at 50° C./75% RH and 80° C./75% RH chamber for one week. A same amount of sample was placed in a closed vial at 50° C. and 80° C. chamber for 1 week. The samples were exposed to 100 k Lux light for 12 h at 25° C. […] The color of the samples was evaluated by visual observation. […]
Rule: measured DP % (Degradation Product), Bulk (UPLC) below 2% gets Y; anything equal to or greater than 2% gets N.

| Compound | Group |
| --- | --- |
| Cc1nc(C)c(C(=O)Nc2ccc(F)c(-c3nc4ncc(-c5ncccc5C)cn4n3)c2)o1 [Amorphous Compound I Fumaric Acid (2:1)] | Y |
| Cc1nc(C)c(C(=O)Nc2ccc(F)c(-c3nc4ncc(-c5ncccc5C)cn4n3)c2)o1 [Form B] | Y |
| Cc1nc(C)c(C(=O)Nc2ccc(F)c(-c3nc4ncc(-c5ncccc5C)cn4n3)c2)o1 [Amorphous Compound I Fumaric Acid (1:1)] | N |
| Cc1nc(C)c(C(=O)Nc2ccc(F)c(-c3nc4ncc(-c5ncccc5C)cn4n3)c2)o1 [Compound I Fumaric Acid Co-crystal (2:1)] | Y |
| Cc1nc(C)c(C(=O)Nc2ccc(F)c(-c3nc4ncc(-c5ncccc5C)cn4n3)c2)o1 [Form C] | Y |
| Cc1nc(C)c(C(=O)Nc2ccc(F)c(-c3nc4ncc(-c5ncccc5C)cn4n3)c2)o1 [Free Form] | Y |
